Cited source: paper PMC5554537

Test: Plasma, liver and brain PK after i.p. dosing with M14
Type: in vivo
Conditions: NIH-III nude, mouse, in vivo, ip, 135 mg/kg, i.p. M14 135 mg/kg; brain; read-out: Terminal T1/2
property name: half-life (min)
# unit: min | format: bare number

query: Provide one value: measured half-life of [O-][n+]1nc(CCCN2CCOCC2)nc2cc3c(cc21)CCC3 [M14]
result: 20.1

====

Assay: in vivo
Conditions: NIH-III, mouse, liver, ip, 186 mg/kg, Terminal T1/2, i.p. SN30000 186 mg/kg, HT29 tumour-bearing mice
property name: half-life (min)
# unit: min | format: bare number

query: Provide one value: measured half-life of "c1c2c(cc3nc(CCCN4CCOCC4)nnc13)CCC2"
result: 52.4

====

Assay: in vivo
Details: NIH-III nude, mouse, in vivo, iv, 18.6 mg/kg
property name: Vd (L/kg)
# unit: L/kg | format: bare number

query: Provide one value: measured Vd of [O-][n+]1nc(CCCN2CCOCC2)[n+]([O-])c2cc3c(cc21)CCC3 [SN30000]
result: 1.29

====

Test: in vivo
Details: female, NIH-III nude, mouse, plasma, ip, T1/2, co-administered with SN30000 18.6 mg/kg i.p.
property name: half-life (min)
# unit: min | format: bare number

query: Provide one value: measured half-life of "OC[C@@H](O)[C@@H](O)[C@H](O)[C@H](O)CO"
result: 13.1

====

Test: Plasma, liver and brain PK after i.p. dosing with M14
Format: in vivo
Conditions: NIH-III nude, mouse, ip; i.p. M14 135 mg/kg; plasma; read-out: Cmax
property name: Cmax
For clarity, give the value followed by its unit.

query: Provide one value: measured Cmax of "c1c2c(cc3nc(CCCN4CCOCC4)nnc13)CCC2"
result: 4 µM

====

Assay: in vivo
Settings: female, NIH-III nude, mouse, plasma, ip, Cmax, co-administered with SN30000 186 mg/kg i.p.
property name: Cmax (µM)
# unit: µM | format: bare number

query: Provide one value: measured Cmax of "OC[C@@H](O)[C@@H](O)[C@H](O)[C@H](O)CO"
result: 51

====

Assay: Plasma, liver and brain PK after i.p. dosing with M14
Assay type: in vivo
Settings: NIH-III nude, mouse, in vivo, ip, 135 mg/kg, i.p. M14 135 mg/kg; plasma; read-out: Terminal T1/2
property name: half-life (h)
# unit: h | format: bare number

query: Provide one value: measured half-life of "O=C(O)CCc1nc2cc3c(cc2[n+]([O-])n1)CCC3"
result: 3.03

query: Provide one value: measured half-life of "[O-][n+]1nc(CCCN2CCOCC2)nc2cc3c(cc21)CCC3"
result: 0.513

====

Assay: Metabolite profile in plasma, liver and HT29 tumor after i.p. SN30000
Format: in vivo, NIH-III mice
Settings: SN30000 186 mg/kg i.p., HT29 tumor
property name: Metabolite/SN30000 peak area, Tumor
Lab note: write the figure by itself, no unit.

query: Provide one value: measured Metabolite/SN30000 peak area, Tumor of OCCNCCCc1nnc2cc3c(cc2n1)CCC3 [M11]
result: 0.06

query: Provide one value: measured Metabolite/SN30000 peak area, Tumor of O=C(O)CCc1n[n+]([O-])c2cc3c(cc2[n+]1[O-])CCC3 [M16]
result: 0.49

query: Provide one value: measured Metabolite/SN30000 peak area, Tumor of [O-][n+]1nc(CCCNCCO)nc2cc3c(cc21)CCC3 [M12]
result: 0.16
